Target: Androgen Receptor (AR) (Homo sapiens, UniProt P10275, T878A)
Construct: cell based immuno-fluorescence assay using the LNCaP prostate epithelial cell line; endogenous in cells; host or cells: LNCaP clone FGC (ATCC CRL-1740)
Sequence (P10275 whole entry T878A): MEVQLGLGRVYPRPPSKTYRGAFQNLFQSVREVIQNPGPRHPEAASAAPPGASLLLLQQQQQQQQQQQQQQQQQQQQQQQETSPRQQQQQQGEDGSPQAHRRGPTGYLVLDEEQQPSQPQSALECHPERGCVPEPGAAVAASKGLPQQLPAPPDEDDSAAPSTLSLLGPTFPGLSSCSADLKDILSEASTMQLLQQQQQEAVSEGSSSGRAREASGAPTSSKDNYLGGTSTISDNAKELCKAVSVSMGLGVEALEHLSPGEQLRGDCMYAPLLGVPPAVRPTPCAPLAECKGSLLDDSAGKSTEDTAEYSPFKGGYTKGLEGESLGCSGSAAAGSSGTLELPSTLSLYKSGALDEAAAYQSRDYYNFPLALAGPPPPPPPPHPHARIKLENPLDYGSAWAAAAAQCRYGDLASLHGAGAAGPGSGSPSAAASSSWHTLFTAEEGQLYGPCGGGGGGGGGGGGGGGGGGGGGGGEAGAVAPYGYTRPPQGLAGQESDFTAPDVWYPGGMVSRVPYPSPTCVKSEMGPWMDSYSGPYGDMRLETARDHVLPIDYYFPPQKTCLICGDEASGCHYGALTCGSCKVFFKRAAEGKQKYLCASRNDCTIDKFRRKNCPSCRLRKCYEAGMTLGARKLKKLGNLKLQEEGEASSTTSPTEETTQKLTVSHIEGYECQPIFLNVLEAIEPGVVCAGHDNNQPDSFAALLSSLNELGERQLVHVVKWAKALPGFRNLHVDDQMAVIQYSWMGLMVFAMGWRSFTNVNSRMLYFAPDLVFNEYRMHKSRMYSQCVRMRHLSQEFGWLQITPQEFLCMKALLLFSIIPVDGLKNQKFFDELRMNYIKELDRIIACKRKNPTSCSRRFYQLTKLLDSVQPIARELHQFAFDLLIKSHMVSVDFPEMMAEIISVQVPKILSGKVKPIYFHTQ
Assay: LNCaP Androgen Receptor Down-regulation Cell Assay (immunofluorescence end point)
Type: cell-based
Conditions: LNCaP prostate carcinoma cells, compound incubation 20-22 hours, 50% reduction of the AR signal; read-out: Androgen Receptor Down-regulation Assay (a) IC50/μM
Experimental: The ability of compounds to reduce Androgen Receptor (AR) numbers was assessed in a cell based immuno-fluorescence assay using the LNCaP prostate epithelial cell line. a) LNCaP Androgen Receptor Down-regulation Cell Assay […] Immunostaining was performed at room temperature. […] Then 50 μl of PBST was added to each well and plates were covered with a black plate seal and stored at 4° C. before being read. Plates were read within six hours of completing the immunostaining. […]
# maps each entry to its DC50
readout-type: DC50 (µM)

| smi | readout-units | qualifying-sign | observed-value |
| --- | --- | --- | --- |
| FC(F)(F)c1nnc2ccc(N3CCC(Oc4ccc(Br)cn4)CC3)nn12 | µM | = | 2.9 |
| N#Cc1cc(F)c(CN2CCN(c3ccc4nnc(C(F)(F)F)n4n3)CC2)c(F)c1 | µM | = | 4.2 |
| FC(F)Oc1ccc(CN2CCN(c3ccc4nnc(C(F)(F)F)n4n3)CC2)cc1 | µM | = | 1.4 |
| COCCNC(=O)c1ccc(OC2CCN(c3ccc4nnc(C(F)(F)F)n4n3)CC2)cc1 | µM | = | 2.7 |
| Fc1cc(CN2CCN(c3ccc4nnc(C(F)(F)F)n4n3)CC2)cc(F)c1F | µM | > | 12 |
| Fc1cccc(OC2CN(c3ccc4nnc(C(F)(F)F)n4n3)C2)c1 | µM | > | 30 |
| OC1(c2nccs2)CCN(c2ccc3nnc(C(F)(F)F)n3n2)CC1 | µM | = | 5.9 |
| FC(F)(F)Cc1nnc2ccc(N3CCN(C(c4ccccc4)c4ccccc4)CC3)nn12 | µM | = | 2.5 |
| FC(F)(F)c1nnc2ccc(N3CCC(COc4ccncc4)CC3)nn12 | µM | = | 2.9 |
